# System: NCI-H460
# assay.text: NCI tumour cell line growth inhibition, 48 h
The source made the active and inactive calls. Rule as the data show it: active = GI50 up to about 1.1 µM and inactive = higher.
Assign a class; possible classes are active, inactive

Consider the following illustrative entries.
>>> class_label("Cc1ccccc1NC(=O)CC1C(=O)Nc2ccccc2[S+]1[O-] (stereo not given)")
"inactive"
>>> class_label("O=C(CN1CCN(Cc2ccccc2)CC1)c1ccc2[nH]c(=O)oc2c1")
"inactive"
>>> class_label("C=C1CC[C@@H]2C(C)(C)C(O)CCC2(C)C1COc1ccc2ccc(=O)oc2c1 (stereo not given in full)")
"inactive"
>>> class_label("CCCCCCC(C)CCCCCCCCCCC(=O)O (stereo not given)")
"inactive"
>>> class_label("COC(=O)[C@@H]1[C@H](O)[C@H](C)[C@H](O)[C@@](C)(O)/C=C\\C=C(\\C)C(=O)Nc2c(C)c(OC(C)=O)c3c(c2O)C(=O)C(C)=C2OCOC(=C23)/C(C)=C/[C@@](C)(O)[C@H](O)[C@@H](C)[C@H]1OC(C)=O")
"inactive"

Could you now look at the following compound, please?
Dear all, I need the recorded test outcome for `O=[N+]([O-])c1ccc(S(=O)(=O)N=Ic2ccccc2)cc1` , thank you.
inactive

---

# System: SR
# assay.text: NCI tumour cell line growth inhibition, 48 h
Calls of active or inactive are those of the source. Rule as the data show it: active = GI50 up to about 1.1 µM and inactive = higher.
Assign a class; possible classes are active, inactive

>>> class_label("O=C1Nc2ccccc2/C1=C\\c1c(Cl)n(-c2ccccc2)c2ccccc12")
"inactive"
>>> class_label("O=Cc1ccc(OC[C@H]2COC(=O)N2)cc1")
"inactive"

Dear all, I need the recorded test outcome for CS(=O)(=O)OC1CCC2(C#N)CCC1C2=O (stereo unspecified) , thank you.
inactive

Dear all, I need the recorded test outcome for NNC(=S)N/N=C(\CC1OC(=O)c2ccccc21)c1ccccc1O (stereo unspecified) , thank you.
inactive

---

Kindly supply the reported GI50 values for the records listed here.
# System: HL-60
# assay.text: NCI tumour cell line growth inhibition, 48 h
The source made the active and inactive calls. Cut-off read from the data, not from the text of the source: active = GI50 up to about 1.1 µM and inactive = higher.

Example cases with answers are listed next.
>>> reading("Cc1c(-c2ccccn2)ccc2ccccc12")
"44.6 µM (inactive)"
>>> reading("O=Cc1ccc(OC[C@H]2COC(=O)N2)cc1")
"> 100 µM (inactive)"
>>> reading("N=C1N(c2ccccc2)C(=O)C23CCCC2C13N1CCOCC1 (centres undefined)")
"> 100 µM (inactive)"
>>> reading("COC(=O)/C=C1/OC(c2ccccc2)=C(Cl)C1=O")
"3.95 µM (inactive)"
>>> reading("COc1c(-c2nc3ccc(N4CCN(C)CC4)cc3[nH]2)cc(OC)c2[nH]c(COC(C)=O)nc12")
"59.8 µM (inactive)"

List GI50 for every entry below, keeping the order given.
1. Clc1cccc(C2SCc3nc4ccccc4n32)c1Cl (centres undefined)
2. CCOC(=O)c1csc(NC(=O)CN2CCCCC2)n1
3. Cc1ccc(C2SCC(=O)N2c2ccc(-n3c(-c4ccccc4)nc4ccccc4c3=O)cc2)cc1 (centres undefined)

5.18 µM (inactive)
> 100 µM (inactive)
19.5 µM (inactive)

List GI50 for every entry below, keeping the order given.
1. Nc1nnc2oc3ccc4ccccc4c3cc1-2
2. O=C(O)C/C=C/CC(=O)O
3. O=C(O)CN1CCN2CCCCCN(CC1)CCN(CC(=O)O)CC2
4. CN(C)c1ccc(/C=C2\C[C@H]3[C@@H]4CC=C5C[C@@H](O)CC[C@]5(C)[C@H]4CC[C@]3(C)C2=O)cc1
5. CC(=O)N(CCc1ccccc1)C(C)(C#N)c1ccccc1 (centres undefined)

1. 21.9 µM (inactive)
2. > 100 µM (inactive)
3. 5.26 µM (inactive)
4. > 100 µM (inactive)
5. > 100 µM (inactive)

Sure, the documented GI50 for `CSC(=S)N(C)NC(=O)c1cccc(C(=O)NN(C)C(=S)SC)n1` is 5.7 µM (inactive)

Entry source: ChEMBL document CHEMBL1201862
